Reference for the values: ChEMBL document CHEMBL5665443

target: G/T mismatch-specific thymine DNA glycosylase (Homo sapiens) (UniProt Q13569); settings: Compound Concentration 10.0 uM, Hit No;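 further: human TDG cleavage of quenched duplex DNA oligonucleotides coupled to APE1, strand release read as fluorescence at 594 nm, inhibition of TDG activity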
Sequence (Q13569 whole entry): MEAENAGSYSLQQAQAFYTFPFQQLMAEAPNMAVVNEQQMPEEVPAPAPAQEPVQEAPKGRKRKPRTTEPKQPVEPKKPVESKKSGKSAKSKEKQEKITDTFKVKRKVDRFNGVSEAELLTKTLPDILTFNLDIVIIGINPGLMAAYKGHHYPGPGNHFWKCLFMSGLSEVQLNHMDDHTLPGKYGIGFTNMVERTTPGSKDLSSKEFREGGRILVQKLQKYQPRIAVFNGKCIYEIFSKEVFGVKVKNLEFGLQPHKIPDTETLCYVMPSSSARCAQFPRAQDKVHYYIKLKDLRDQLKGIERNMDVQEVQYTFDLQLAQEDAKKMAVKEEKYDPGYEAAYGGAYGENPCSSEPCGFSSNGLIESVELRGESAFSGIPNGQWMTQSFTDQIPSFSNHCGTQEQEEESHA
Description: Inhibition of TDG by quantifying inhibition of TDG-mediated cleavage and dissociation of quenched duplex DNA oligonucleotides, measured as fluorescence at 594 nm. To generate a functional strand incision and increase turn-over this assay is coupled to APE1.
Measured Property: inhibition

{"Test Smiles": "COc1cc(-c2cncc(-c3ccc(N4CCN(C(C)C)CC4)cc3)c2C)cc(F)c1C(=O)N1CCCC1", "Measured Property": "inhibition", "Recorded Result": "47.2%"}
{"Test Smiles": "CCc1nn2c(C)cc(C)nc2c1Cc1ccc(-c2nnc(C3CCNCC3)o2)cc1", "Measured Property": "inhibition", "Recorded Result": "1.84%"}
{"Test Smiles": "Cn1c(=O)n(CCCO)c(=O)c2c1nc(Oc1cccc(OC(F)(F)F)c1)n2Cc1ccc(Cl)cc1", "Measured Property": "inhibition", "Recorded Result": "19.9%"}
{"Test Smiles": "N#Cc1ccc(NC(=O)Nc2ccccc2Br)c2nn[nH]c12", "Measured Property": "inhibition", "Recorded Result": "26.3%"}
{"Test Smiles": "CNC(=O)c1cc(C(=O)N[C@H]2[C@@H]3COC[C@@H]32)cc2c1O[C@@H](CF)[C@@H]2c1ccccc1", "Measured Property": "inhibition", "Recorded Result": "52.5%"}
{"Test Smiles": "CN(C)CCOc1ccc(-c2nc(-c3ccncc3)c(-c3ccc4c(c3)CC/C4=N\\O)[nH]2)cc1", "Measured Property": "inhibition", "Recorded Result": "47.4%"}
{"Test Smiles": "O=C(O)c1cccc(/C=C2/C[C@@H]3[C@@H](/C=C/[C@H](O)C4CCCCC4)[C@H](O)C[C@@H]3O2)c1", "Measured Property": "inhibition", "Recorded Result": "21.2%"}
{"Test Smiles": "COc1cc(C(=O)N(CCCc2ccccc2)Cc2ccc(CC(=O)O)cc2)cc(OC)c1C", "Measured Property": "inhibition", "Recorded Result": "17.3%"}
{"Test Smiles": "COc1cnccc1Nc1nc(-c2nn(Cc3c(F)cc(OCCO)cc3F)c3ccccc23)ncc1OC", "Measured Property": "inhibition", "Recorded Result": "11.1%"}

###

target: Endonuclease 8-like 1 (Homo sapiens); settings: Compound Concentration 10.0 uM, Hit No;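 further: fluorescence at 594 nm from quenched duplex DNA oligonucleotides released by NEIL1 cleavage and strand separation, reported as reduction of this enzyme activity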
Description: Inhibition of NEIL1 by quantifying inhibition of NEIL1-mediated cleavage and dissociation of quenched duplex DNA oligonucleotides, measured as fluorescence at 594 nm.

{"Compound": "Nc1nc(CC(=O)Nc2ccc(CCNC[C@H](O)c3ccccc3)cc2)cs1", "Unit Of Measure": "%", "inhibition": 3.71}
{"Compound": "OC(c1ccc(-c2ccc(CN3CCN(Cc4ccncc4)CC3)cc2)c(F)c1)(C(F)(F)F)C(F)(F)F", "Unit Of Measure": "%", "inhibition": -6.8}
{"Compound": "COc1cc(N)c(Cl)cc1C(=O)NC1CN2CCC1CC2 (stereo not given)", "Unit Of Measure": "%", "inhibition": -0.139}
{"Compound": "CCn1c(CNC(=O)c2ncc(C)nc2N)[n+](CC)c2ccc(C(=O)N(C)CCN(C)C)cc21", "Unit Of Measure": "%", "inhibition": -4.53}
{"Compound": "C[C@H](Cc1cc2c(c(C(N)=O)c1)N(CCCO)CC2)NCCOc1ccccc1OCC(F)(F)F", "Unit Of Measure": "%", "inhibition": -4.21}
{"Compound": "CCCC(=O)N[C@@H](Cc1ccc(O)cc1)C(=O)NCCCCCCCNCCCCN", "Unit Of Measure": "%", "inhibition": 4.46}
{"Compound": "CN(C)c1ccnc2sc3c(=O)n(N4CCCCCC4)cnc3c12", "Unit Of Measure": "%", "inhibition": 7.65}
{"Compound": "CCOC(=O)N1CCC(c2cc(O)n3nc(C)c(-c4ccc(F)cc4)c3n2)CC1", "Unit Of Measure": "%", "inhibition": 5.34}
{"Compound": "C[C@@]1(Cc2ccc(C#N)cc2)C(=O)N(c2cc(Cl)cc(Cl)c2)c2ncc(C(=O)NC3(c4nc(C5CCC5)no4)CC3)n21", "Unit Of Measure": "%", "inhibition": -6.2}
{"Compound": "COC(=O)/C=C/c1cccc(N(Cc2ccc(-c3ccc(N(C)C)cc3)cc2)C(=O)C2CCCCC2)c1", "Unit Of Measure": "%", "inhibition": -4.23}
